- Tgt: T1, hK1 (human tissue kallikrein 1), recombinant (human, UniProt P06870 25-262)
- T1 construct: Expressed in P. pastoris from KLK1 cDNA and purified; enzymatically active; also called KLK1; Recombinant (Pichia) Kallikrein
- Experiment description: SPR
The threshold is inclusive: kon of exactly 400000 M⁻¹ s⁻¹ counts as criterion met; values below receive criterion not met.

>>> label_class("M0138-A03 (Fab, V domains shown) VH: EVQLLESGGGLVQPGGSLRLSCAASGFTFSFYLMFWVRQAPGKGLEWVSGIYPSGGQTVYADSVKGRFTISRDNSKNTLYLQMNSLRAEDTAVYYCARAIGAGSSFWGQGTLVTVSS VL: DIQMTQSPSSVSASVGDRVTITCRASQGISSWLAWYQQKPGKAPKLLIYAASSLQSGVPSRFSGSGSGTDFTLTISSLQPEDFATYYCQQANSFPHTFGQGTKLEIKR")
"criterion not met"
>>> label_class("M0104-D12 (Fab, V domains shown) VH: EVQLLESGGGLVQPGGSLRLSCAASGFTFSHYAMFWVRQAPGKGLEWVSSIWPSGGKTMYADSVKGRFTISRDNSKNTLYLQMNSLRAEDTATYYCARGGSYLAFDIWGQGTMVTVSS VL: DIQMTQSPSSLSASVGDRVTITCRASLSVSGYLNWYQHKPGRAPNLLIYATSSLQSGVPSRFSGSGSGTDFTLTVSSLQPEDLATYYCQQSYSSPYTFGQGTKVEIKG")
"criterion not met"
>>> label_class("M0098-E09 (Fab, V domains shown) VH: EVQLLESGGGLVQPGGSLRLSCAASGFTFSRYGMQWVRQAPGKGLEWVSYIYPSGGGTVYADSVKGRFTISRDNSKNTLYLQMNSLRAEDTAVYYCARRVAVAGSWYYYYYGMDVWGQGTTVTVSS VL: DIQMTQSPSSVSASVGDSVTISCWTIYDISSWLAWYQQRPGQAPKLLIYAASRLATGVPSRFRGSGSGTDFTLTITNLQPEDVATYYCQQTKDFPLTFGGGTRVDLKR")
"criterion met"
>>> label_class("M0099-C12 (Fab, V domains shown) VH: EVQLLESGGGLVQPGGSLRLSCAASGFTFSRYAMHWVRQAPGKGLEWVSSIWPSGGATFYADSVKGRFTISRDNSKNTLYLQMNSLRAEDTAVYYCATSPTLNAFHIWGQGTMVTVSS VL: AQSVLTQPASVSGSPGQSITISCTGTTSDVGGYKYVSWYQHHPGKVPKLIIYEVNHRPSGVSHRFSGSKSGNTASLIISALQAEDEADYYCYSYTSDSTPYVFGTGTKVTVL")
"criterion not met"
>>> label_class("M0128-A06 (Fab, V domains shown) VH: EVQLLESGGGLVQPGGSLRLSCAASGFTFSHYKMNWVRQAPGKGLEWVSYIGSSGGKTGYADSVKGRFTISRDNSKNTLYLQMNSLRAEDTALYYCARVGVWYGMDVWGQGTLVTVSS VL: AQSALTQPPSLSVSAGQTATITCSPSGGGLRNKYVSWYQQRPGQSPFLVIYKDAERPSGIPERFSGSNFGNTATLTIGGTQAMDEADFYCLAWDSTTRVFGGGTKLTVLS")
"criterion not met"
